The values you see were collected from patent US10633379B2.

protocol_description: Xenograft tumor growth inhibition assay, LNCaP (prostate)
Type: in vivo, Male NSG mice
test_conditions: male, NSG, in vivo; mouse LNCaP xenograft, oral, dose 4.7 mg/kg; read-out: AUC, mouse efficacy, Prostate (LNCaP)
Description: The effect of compound of Example 32, 35 and Compound X to inhibit the growth of SKM-1_FP1 and LNCaP-FGC xenograft tumors was evaluated. Female SCID Beige mice (Charles River) were utilized for the SKM-1_FP1 flank xenograft model. Male NSG mice (JAX Labs) were used for the LNCaP-FGC study. […] Tumor growth in the flank was assessed by measuring tumor size with calipers and calculating volume using the formula (L×W^2/2). […]
quantity_kind: AUC (ng·h/mL)

[[record]]
entry_smiles = "CCNC(=O)c1cc2c(-c3cc(C(C)(C)O)ccc3Oc3c(C)cc(F)cc3C)cn(C)c(=O)c2[nH]1"
reported = 1100

